System: SR leukemia
Assay: NCI-60 one-dose screen, 48 h
Settings: 10 µM unless noted
The panel holds about 83,000 compounds, 20% with a hit somewhere; the sample as a whole holds those more often. Calls of active or inactive are those of the source. The calls were made as follows: active = growth percent below 10; inactive = the rest.
Allowed answers: Y (active), N (inactive)

1) COc1ccc2nc(Nc3cccc(NC(=O)c4ccc(CN5CCCN(C)CC5)c(C(F)(F)F)c4)c3)ccc2c1 : Y
2) Cc1ccc(-c2nc(C#N)c(S(=O)(=O)N3CCN(S(=O)(=O)c4ccccc4)CC3)o2)cc1 : Y

Prompt line: Each compound tested received a call. Report the one for O=C1NC(=O)c2c1c1c3cc(Br)ccc3[nH]c1c1oc3ccc(F)cc3c21 .
Response line: Y

----------
System: SNB-19 CNS
Assay: NCI-60 one-dose screen, 48 h (100 = growth as untreated, 0 = no growth, -100 = all killed)
Settings: 10 µM unless noted
Compounds without any hit were thinned out: in the full panel of roughly 83,000, 20% have a hit.
For each entry below, report its growth value.
Give bare numbers, in %.

Worked set:
1) O=C(N/N=C/c1ccc(-c2ccc(O)cc2)s1)c1[nH]c2ccc(Br)cc2c1-c1ccccc1 : 20.2
2) CN(C)c1nc(NCCNS(=O)(=O)c2ccc(C(=O)/C=C/c3ccc(C(F)(F)F)cc3)cc2)nc(Nc2ccc(F)cc2)n1 : 25.2
3) COc1ccc(-c2ccc(SCC(=O)Nc3ccc(S(N)(=O)=O)cc3Br)nn2)cc1 : 23.4
4) COc1ccc(C2=NN(c3ccccc3)C(c3ccc(OC)c(OCc4ccccc4)c3)C2)cc1OC (stereo not given) : 88.1
5) C=C1CCC2C3(C)COC(c4ccco4)OC3CCC2(C)C1CC(Sc1ccccc1)C1=CCOC1=O (stereo not given) : 86.2
6) N#Cc1c(-c2cccc3ccccc23)cc(-c2cccc(OCC(=O)O)c2)[nH]c1=O : 97.1
7) NS(=O)(=O)c1ccc(-n2cc(-c3cccc(NC(=O)c4cc(N5CCOCC5)cc(C(F)(F)F)c4)c3)nn2)cc1 : 40.8
8) CC1(C)CC[C@]2(C(=O)O)CC[C@]3(C)C(=CCC4[C@@]5(C)C[C@@H](O)[C@@H]6OC(c7cccc(Br)c7)OC[C@@]6(C)C5CC[C@]43C)C2C1 (stereo not given in full) : 47.1
9) S=C(NCCc1ccccc1)Nc1ccc(OCc2nc3ccccc3[nH]2)cc1 : 102
10) CCOC(=O)C(N=Nc1ccc(S(=O)(=O)N=C(N)N)cc1)C(C)=O (stereo not given) : 101

Okay, here is my list. What is growth for each of these?
1. O=C(CCN1C(=O)/C(=C/c2ccc(F)cc2)SC1=S)N1CCOCC1
2. COc1ccc(C(=O)/C=C/c2ccc(OC)c(OCc3ccccc3)c2)cc1OC
3. Cn1cc(-c2cc(N)n3nc(-c4cn(C)c5ncc(Br)cc45)cc3n2)c2cc(Br)cnc21
4. COc1cc2c(c(OC)c1OC)C(=O)CC(c1cccc(NC(=O)c3cc(NC(=O)[C@H](C)N)ccc3Cl)c1)O2 (stereo not given in full)

Response line:
1: 87.6; 2: 17.3; 3: 10; 4: 67.1

----------
System: M14 melanoma
Assay: NCI-60 one-dose screen, 48 h
Conditions: 10 µM unless noted
Description: Growth inhibition of the M14 human tumor cell line is measured as a screen for anti-cancer activity. Cells are grown in 96 well plates and exposed to the test compound for 48 hours. Compounds are tested at a single concentration, which is 10^-5 M for most compounds. The reported endpoint is percent growth (GI% or GIPRCNT), where numbers from 0 - 100% represent growth inhibition, and numbers from -100% - 0 represent cell death. For example, a value of 40 represents 60% growth inhibition. […]
The panel holds about 83,000 compounds, 20% with a hit somewhere; the sample as a whole holds those more often. Activity calls are given as the source filed them. How the source made its calls: active means growth percent below 10; inactive means the rest.
Allowed answers: active, inactive

Prompt line: Each molecule tested received a call. Report the one for O=C1NC(=O)/C(=C/c2ccccc2OCc2cc3ccccc3nc2Cl)S1 .
Response line: inactive
